target: Neuropilin-1 (Homo sapiens) (UniProt O14786); test: NRP-1 b1b2 CendR peptide binding inhibitors, dose response, biochemical, FP and AlphaScreen panel (AID 651650); details: NRP-1 b1b2 / RPARPAR peptide binding, FP or AlphaScreen; FP, run 2; individual panel run IC50
Sequence (O14786 whole entry, looked up): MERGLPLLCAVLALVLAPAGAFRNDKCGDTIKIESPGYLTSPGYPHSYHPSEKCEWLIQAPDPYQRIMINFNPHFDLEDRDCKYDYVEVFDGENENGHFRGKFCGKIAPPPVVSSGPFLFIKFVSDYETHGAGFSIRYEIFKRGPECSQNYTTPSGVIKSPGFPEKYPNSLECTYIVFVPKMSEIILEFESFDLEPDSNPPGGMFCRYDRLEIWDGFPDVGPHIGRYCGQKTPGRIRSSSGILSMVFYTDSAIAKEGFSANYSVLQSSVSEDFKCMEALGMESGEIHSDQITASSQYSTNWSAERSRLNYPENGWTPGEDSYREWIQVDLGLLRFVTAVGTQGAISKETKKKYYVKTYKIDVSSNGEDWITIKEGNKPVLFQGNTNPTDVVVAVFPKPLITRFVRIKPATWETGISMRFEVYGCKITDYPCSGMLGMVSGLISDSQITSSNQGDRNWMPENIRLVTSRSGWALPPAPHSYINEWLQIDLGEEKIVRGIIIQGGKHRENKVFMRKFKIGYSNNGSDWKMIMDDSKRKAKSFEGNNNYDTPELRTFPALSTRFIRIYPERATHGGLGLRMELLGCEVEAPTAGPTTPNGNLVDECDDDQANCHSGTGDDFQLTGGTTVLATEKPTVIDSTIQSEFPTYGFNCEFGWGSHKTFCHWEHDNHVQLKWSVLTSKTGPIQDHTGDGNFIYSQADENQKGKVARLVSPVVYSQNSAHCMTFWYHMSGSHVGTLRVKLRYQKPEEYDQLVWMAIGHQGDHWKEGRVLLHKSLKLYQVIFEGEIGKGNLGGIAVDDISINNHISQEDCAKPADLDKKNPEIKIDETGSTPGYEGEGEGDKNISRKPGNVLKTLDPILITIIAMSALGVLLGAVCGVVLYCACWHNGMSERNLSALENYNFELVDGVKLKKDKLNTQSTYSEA
property: IC50

[[record]]
compound = "O=C(NCCN1CCOCC1)c1cc(-c2ccc(F)cc2)on1"
target_desc = "Neuropilin-1 (Homo sapiens) (UniProt O14786)"
reported_result = "> 95 µM"

[[record]]
compound = "Nc1cc(S(=O)(=O)O)cc([N+](=O)[O-])c1O"
target_desc = "Neuropilin-1 (Homo sapiens) (UniProt O14786)"
reported_result = "> 95 µM"

[[record]]
compound = "O=C(NCCCN1CCCC(O)C1)c1cc(COc2ccc(F)cc2F)on1 (stereo unspecified)"
target_desc = "Neuropilin-1 (Homo sapiens) (UniProt O14786)"
reported_result = "> 95 µM"

[[record]]
compound = "CC1(c2ccccc2)CC(C)(C)n2c(O)c(C3=NC(=S)NC3=O)c3cccc1c32 (stereo unspecified)"
target_desc = "Neuropilin-1 (Homo sapiens) (UniProt O14786)"
reported_result = "> 95 µM"


# input compound: Cc1ccc(Cl)c(NC(=O)CSc2cccc[n+]2[O-])c1Cl ; wanted: its IC50 > 95 µM

And for CC(=O)Nc1ccccc1OCC(=O)N(Cc1ccccc1)C(C)C ? > 95 µM
